# System: DENV-3 replicon
# assay_comment: Luciferase reporter replicon-based screening, DENV-3
# Assay type: cell-based, DENV-3 (strain D3MY05-34640)
# conditions_used: Dengue virus, DENV3, Huh-7, 48 h, read-out: EC50 DENV-3, Huh7 cells stably expressing DENV-3 replicon, 48 h
Documented EC50 across a set of compounds

{"columns": ["compound", "system_under_test", "EC50"],
 "data": [
  ["C#CCN1C(=O)[C@]2(CC(=O)Nc3c2nnn3[C@@H](C)c2ccc(Cl)cc2)c2cc(Cl)ccc21 [Compound 19]", "DENV-3 replicon", "3 nM"],
  ["C[C@@H](c1ccc(Cl)cc1)n1nnc2c1NC(=O)C[C@]21C(=O)N(C)c2ccc(Cl)cc21 [Compound 7]", "DENV-3 replicon", "4 nM"],
  ["C[C@@H](c1ccc(Cl)cc1)n1nnc2c1NC(=O)C[C@]21C(=O)N(CCc2ccccc2)c2ccc(Cl)cc21 [Compound 32]", "DENV-3 replicon", "190 nM"],
  ["C[C@@H](c1ccc(Cl)cc1)n1nnc2c1NC(=O)C[C@]21C(=O)N(Cc2cccnc2)c2ccc(Cl)cc21 [Compound 34]", "DENV-3 replicon", "21 nM"],
  ["C[C@@H](c1ccc(Cl)cc1)n1nnc2c1NC(=O)C[C@]21C(=O)N(CCCN2CCCCC2)c2ccc(Cl)cc21 [Compound 64]", "DENV-3 replicon", "12 nM"],
  ["C=CCN1C(=O)[C@]2(CC(=O)Nc3c2nnn3[C@@H](C)c2ccc(Cl)cc2)c2cc(Cl)ccc21 [Compound 18]", "DENV-3 replicon", "5 nM"],
  ["C[C@@H](c1ccc(Cl)cc1)n1nnc2c1N(C)C(=O)C(C)(C)[C@]21C(=O)N(C)c2ccc(Cl)cc21 [Compound 23]", "DENV-3 replicon", "> 5000 nM"],
  ["C[C@@H](c1ccc(Cl)cc1)n1nnc2c1NC(=O)C[C@]21C(=O)N(CCCN2CCOCC2)c2ccc(Cl)cc21 [Compound 65]", "DENV-3 replicon", "5 nM"],
  ["C[C@@H](c1ccc(Cl)cc1)n1nnc2c1NC(=O)C[C@]21C(=O)N(CCN2CCCCC2)c2ccc(Cl)cc21 [Compound 56]", "DENV-3 replicon", "5 nM"]
]}

###

# Tested on: DENV-3 replicon
# assay_comment: Luciferase reporter replicon-based screening, DENV-3
# Format: cell-based, DENV-3 (strain D3MY05-34640)
# conditions_used: Dengue virus, DENV3, Huh-7, 48 h, read-out: EC50 DENV-3, Huh7 cells stably expressing DENV-3 replicon, 48 h
pEC50: −log10 of the molar value.
endpoint_label: pEC50

{"columns": ["compound", "observed_value"],
 "data": [
  ["C[C@@H](c1ccc(Cl)cc1)n1nnc2c1NC(=O)C[C@]21C(=O)N(CCF)c2ccc(Cl)cc21 [Compound 46]", "7.12 to 8.05"],
  ["COCCCN1C(=O)[C@]2(CC(=O)Nc3c2nnn3[C@@H](C)c2ccc(Cl)cc2)c2cc(Cl)ccc21 [Compound 39]", "7.12 to 8.05"],
  ["C[C@@H](c1ccc(Cl)cc1)n1nnc2c1NC(=O)C[C@]21C(=O)N(Cc2ccccc2)c2ccc(Cl)cc21 [Compound 24]", "7.29 to 7.70"]
]}
